EXPERIMENTAL PROTOCOL: proteolytic resistance in pig kidney homogenate
Assay type: in vitro ADME
EXPERIMENTAL PARAMETERS: pig, pig kidney homogenate, pH 5.0, 37° C.
PROPERTY NAME: half-life at 0.2 μmol/mg kidney homogenate
Please provide the amount together with its unit, number first.

Request: Please indicate half-life at 0.2 μmol/mg kidney homogenate recorded for CC[C@H](C)[C@H](NC(=O)[C@H](Cc1ccc(O)cc1)NC(=O)[C@@H](NC(=O)[C@H](CCCNC(=N)N)NC(=O)[C@@H](N)CC(=O)O)C(C)C)C(=O)N[C@@H](Cc1c[nH]cn1)C(=O)N1CCC[C@H]1C(=O)O [Ang(1-7), DRVYIHP, reference compound]
Result: 28 min

The reported measurements were obtained from patent US8835375B2.
